biological target: S-adenosylmethionine synthase isoform type-2 (Homo sapiens, UniProt P31153); test: Inhibition of recombinant His6-tagged MAT2A (unknown origin) expressed in SF9 insect cells using L-Met as substrate preincubated for 60 mins followed by substrate and ATP addition and measured after 60 mins by spectrophotometric analysis
Sequence (P31153 whole entry, canonical isoform): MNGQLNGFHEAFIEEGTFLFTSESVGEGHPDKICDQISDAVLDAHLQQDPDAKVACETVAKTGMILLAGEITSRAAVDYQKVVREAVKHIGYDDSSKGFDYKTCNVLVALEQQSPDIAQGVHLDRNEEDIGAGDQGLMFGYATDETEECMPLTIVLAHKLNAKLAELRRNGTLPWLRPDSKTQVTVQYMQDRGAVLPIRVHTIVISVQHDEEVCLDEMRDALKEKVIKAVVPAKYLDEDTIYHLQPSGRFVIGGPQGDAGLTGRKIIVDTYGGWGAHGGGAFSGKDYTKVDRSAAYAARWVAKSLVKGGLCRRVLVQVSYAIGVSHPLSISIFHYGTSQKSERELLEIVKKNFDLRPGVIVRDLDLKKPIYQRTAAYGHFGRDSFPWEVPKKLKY
pIC50: −log10 of the molar value.
quantity: pIC50

As a guide, the following entries are already answered.
State its pIC50 on S-adenosylmethionine synthase isoform type-2 (Homo sapiens, UniProt P31153): COC(=O)Cc1nc2ccc(-c3c(C)[nH]c4c(-c5ccccc5)c(-c5ccccc5)nn4c3=O)cc2s1
> 7.00

State its pIC50 on S-adenosylmethionine synthase isoform type-2 (Homo sapiens, UniProt P31153): Cc1[nH]c2c(-c3ccccc3)c(-c3ccccc3)nn2c(=O)c1-c1ccc(OCC(=O)N(C)C)cc1
6.00 to 7.00

State its pIC50 on S-adenosylmethionine synthase isoform type-2 (Homo sapiens, UniProt P31153): COc1ccc(-c2c(CC#N)[nH]c3c(-c4ccccc4)c(-c4ccccc4)nn3c2=O)cc1
6.00 to 7.00

Consider the additional compound presented here.
State its pIC50 on S-adenosylmethionine synthase isoform type-2 (Homo sapiens, UniProt P31153): Cc1[nH]c2c(N3CCCCC3)c(-c3ccccc3)nn2c(=O)c1-c1ccccc1
6.00 to 7.00
